Catalogue of binders with associated kon
- measuredOn: T1, His-tagged human TIGIT (human, UniProt Q495A1 22-141)
- T1 construct: SPR analyte; also called human TIGIT protein; not shown: His tag
- T1 sequence: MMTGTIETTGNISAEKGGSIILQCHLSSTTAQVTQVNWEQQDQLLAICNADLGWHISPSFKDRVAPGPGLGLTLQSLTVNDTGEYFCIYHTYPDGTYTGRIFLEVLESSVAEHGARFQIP
- assayName: SPR experiment 1, IgG from HEK293 supernatant captured

[
  {
    "binder": "TIGIT-6 chimeric antibody (antibody, human IgG1, kappa, V domains shown, also called 6VH + 6VL) VH: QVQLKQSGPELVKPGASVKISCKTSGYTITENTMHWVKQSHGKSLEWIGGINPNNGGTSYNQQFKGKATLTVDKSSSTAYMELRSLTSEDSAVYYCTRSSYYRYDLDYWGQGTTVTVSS VL: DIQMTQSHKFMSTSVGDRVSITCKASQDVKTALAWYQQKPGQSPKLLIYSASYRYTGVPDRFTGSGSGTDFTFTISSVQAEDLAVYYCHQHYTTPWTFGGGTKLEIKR",
    "kon [M⁻¹ s⁻¹]": 560000
  },
  {
    "binder": "humanized TIGIT-6 antibody 6VH6 + 6VL1.M1 (antibody, V domains shown, Full-length IgG, tested as HEK293 supernatant) VH: QVQLVQSGAEVKKPGASVKVSCKASGYTITENTMHWVRQAPGQRLEWIGGINPNNGGTSYNQQFKGRATLTVDTSASTAYMELSSLRSEDTAVYYCTRSSYYRYDLDYWGQGTTVTVSS VL: DIQMTQSPSSLSASVGDRVTITCQASQDIKTALAWYQQKPGKAPKLLIYSASYRYTGVPSRFSGSGSGTDFTFTISSLQPEDIATYYCHQHYTTPWTFGGGTKLEIK",
    "kon [M⁻¹ s⁻¹]": 530000
  }
]
